Target: UniProt:P34972
Assay: functional cAMP assay, CB2
Settings: CHO cells expressing human CB2
Threshold 30 nM: EC50 strictly smaller gives YES, otherwise NO.

{"molecule": "Cc1noc(Cn2cnc3c(N4CCC(O)C4)nc(C(C)(C)C)nc32)n1 (stereo not drawn)", "assay_system": "UniProt:P34972", "answer_label": "NO"}
{"molecule": "CC1(O)CCN(c2nc(NC(C)(C)C)nc3c2ncn3Cc2c[nH]nc2C(F)(F)F)C1 (stereo not drawn)", "assay_system": "UniProt:P34972", "answer_label": "NO"}
{"molecule": "CC(C)(C)COc1nc(N2CCC(F)(F)C2)c2ncn(Cc3ccccc3Cl)c2n1", "assay_system": "UniProt:P34972", "answer_label": "YES"}
{"molecule": "CC1(O)CCN(c2nc(C(C)(C)C)nc3c2ncn3Cc2ncccc2Cl)C1 (stereo not drawn)", "assay_system": "UniProt:P34972", "answer_label": "NO"}
{"molecule": "CC(C)(C)COc1nc(N2CCC(C)(O)C2)c2ncn(Cc3ccccc3S(C)(=O)=O)c2n1 (stereo not drawn)", "assay_system": "UniProt:P34972", "answer_label": "NO"}
{"molecule": "CC(C)(C)c1nc(N2CCC3(COC3)C2)c2ncn(Cc3n[nH]cc3C(F)(F)F)c2n1", "assay_system": "UniProt:P34972", "answer_label": "YES"}
{"molecule": "CC(C)(C)COc1nc(N2CCC(F)(F)C2)c2nc[nH]c2n1", "assay_system": "UniProt:P34972", "answer_label": "YES"}
{"molecule": "CC(C)(C)c1nc(N2CCC(O)C2)c2ncn(Cc3ccccc3S(C)(=O)=O)c2n1 (stereo not drawn)", "assay_system": "UniProt:P34972", "answer_label": "YES"}
{"molecule": "CC(C)(C)c1nc(N2CCC(O)C2)c2ncn(Cc3c[nH]nc3C(F)(F)F)c2n1 (stereo not drawn)", "assay_system": "UniProt:P34972", "answer_label": "YES"}
{"molecule": "Cc1nonc1Cn1cnc2c(N3CC4(COC4)C3)nc(C(C)(C)C)nc21", "assay_system": "UniProt:P34972", "answer_label": "NO"}
{"molecule": "CC(C)(C)Nc1nc(N2CCC(F)(F)C2)c2ncn(Cc3ccccc3Cl)c2n1", "assay_system": "UniProt:P34972", "answer_label": "YES"}
{"molecule": "CC(C)(C)Nc1nc(N2CC[C@H](O)C2)c2ncn(Cc3ncccc3Cl)c2n1", "assay_system": "UniProt:P34972", "answer_label": "NO"}
{"molecule": "CC(C)(C)Nc1nc(N2CCC(F)(F)C2)c2ncn(Cc3ccccc3C(F)(F)F)c2n1", "assay_system": "UniProt:P34972", "answer_label": "YES"}
{"molecule": "CC(C)(C)c1nc(N2CCC3(COC3)C2)c2ncn(Cc3ccccc3Cl)c2n1", "assay_system": "UniProt:P34972", "answer_label": "NO"}
{"molecule": "CC(C)(C)c1nc(N2CC[C@H](O)C2)c2ncn(Cc3nnnn3C3CC3)c2n1", "assay_system": "UniProt:P34972", "answer_label": "NO"}
{"molecule": "Cc1nonc1Cn1cnc2c(N3CCC(F)(F)C3)nc(NC(C)(C)C)nc21", "assay_system": "UniProt:P34972", "answer_label": "YES"}
{"molecule": "CC(=O)N[C@H]1CCN(c2nc(C(C)(C)C)nc3c2ncn3Cc2ccccc2S(C)(=O)=O)C1", "assay_system": "UniProt:P34972", "answer_label": "NO"}
{"molecule": "CC(=O)N[C@H]1CCN(c2nc(C(C)(C)C)nc3c2ncn3CCC(F)(F)F)C1", "assay_system": "UniProt:P34972", "answer_label": "NO"}
{"molecule": "CC(C)(C)c1nc(N2CC[C@H](O)C2)c2ncn(Cc3cccc(Cl)c3)c2n1", "assay_system": "UniProt:P34972", "answer_label": "YES"}
{"molecule": "Cc1nnc(Cn2cnc3c(N4CCC(F)(F)C4)nc(C(C)(C)C)nc32)o1", "assay_system": "UniProt:P34972", "answer_label": "NO"}
{"molecule": "CC(C)(C)c1nc(N2CC(F)(F)C(F)(F)C2)c2ncn(Cc3ccccc3S(C)(=O)=O)c2n1", "assay_system": "UniProt:P34972", "answer_label": "NO"}
{"molecule": "CC(C)n1nnnc1Cn1cnc2c(N3CC[C@H](O)C3)nc(C(C)(C)C)nc21", "assay_system": "UniProt:P34972", "answer_label": "NO"}
{"molecule": "CC(C)(C)c1nc(N2CCC(O)C2)c2ncn(Cc3ccc(F)cc3Cl)c2n1 (stereo not drawn)", "assay_system": "UniProt:P34972", "answer_label": "YES"}
{"molecule": "CC(C)(C)c1nc(N2CCC(F)(F)C2)c2ncn(Cc3ccc(F)cc3Cl)c2n1", "assay_system": "UniProt:P34972", "answer_label": "YES"}
{"molecule": "CC(C)(C)c1nc(N2CCC(F)(F)C2)c2ncn(Cc3ccccc3S(C)(=O)=O)c2n1", "assay_system": "UniProt:P34972", "answer_label": "YES"}
{"molecule": "FC1(F)CCN(c2nc(Cl)nc3c2ncn3Cc2ccccc2)C1", "assay_system": "UniProt:P34972", "answer_label": "NO"}
{"molecule": "CC1(O)CN(c2nc(C(C)(C)C)nc3c2ncn3Cc2ncccc2Cl)C1", "assay_system": "UniProt:P34972", "answer_label": "NO"}
{"molecule": "CC(C)(C)c1nc(N2CCSC2)c2ncn(Cc3ncccc3Cl)c2n1", "assay_system": "UniProt:P34972", "answer_label": "YES"}
{"molecule": "CC(C)(C)c1nc(N2CC[C@H](O)C2)c2ncn(Cc3ccccc3C(F)(F)F)c2n1", "assay_system": "UniProt:P34972", "answer_label": "YES"}
{"molecule": "CC(C)(C)Nc1nc(N2CCC(F)(F)C2)c2ncn(Cc3ncccc3Cl)c2n1", "assay_system": "UniProt:P34972", "answer_label": "YES"}

* * *

Target: human CB2 receptors (Homo sapiens (Human), UniProt P34972)
Sequence (P34972 whole entry): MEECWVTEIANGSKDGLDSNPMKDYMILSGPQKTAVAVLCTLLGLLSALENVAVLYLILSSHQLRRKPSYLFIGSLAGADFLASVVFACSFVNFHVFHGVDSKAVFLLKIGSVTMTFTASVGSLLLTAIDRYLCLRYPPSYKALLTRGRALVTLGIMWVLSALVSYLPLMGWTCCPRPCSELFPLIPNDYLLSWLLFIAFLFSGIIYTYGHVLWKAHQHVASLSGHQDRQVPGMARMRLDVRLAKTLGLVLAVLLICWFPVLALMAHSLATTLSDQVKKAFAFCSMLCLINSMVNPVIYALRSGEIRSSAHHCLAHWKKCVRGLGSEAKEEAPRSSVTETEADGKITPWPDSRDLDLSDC
Assay: functional cAMP assay, CB2
Conditions: CHO cells expressing human CB2
// reported EC50 for each item listed

{"compound": "CCCn1nnnc1Cn1cnc2c(N3CC[C@H](O)C3)nc(C(C)(C)C)nc21", "assay_system": "human CB2 receptors (Homo sapiens (Human), UniProt P34972)", "EC50 / µM": 0.0616}
{"compound": "Cc1noc(Cn2cnc3c(N4CCC(F)(F)C4)nc(NC(C)(C)C)nc32)n1", "assay_system": "human CB2 receptors (Homo sapiens (Human), UniProt P34972)", "EC50 / µM": 0.195}
{"compound": "Cc1nonc1Cn1cnc2c(N3CC[C@H](O)C3)nc(NC(C)(C)C)nc21", "assay_system": "human CB2 receptors (Homo sapiens (Human), UniProt P34972)", "EC50 / µM": 0.149}
{"compound": "Cn1nnnc1Cn1cnc2c(N3CCC(F)(F)C3)nc(NC(C)(C)C)nc21", "assay_system": "human CB2 receptors (Homo sapiens (Human), UniProt P34972)", "EC50 / µM": 0.249}
{"compound": "CC(=O)N[C@H]1CCN(c2nc(C(C)(C)C)nc3c2ncn3Cc2c[nH]nc2C(F)(F)F)C1", "assay_system": "human CB2 receptors (Homo sapiens (Human), UniProt P34972)", "EC50 / µM": 0.28}
{"compound": "CC(C)(C)c1nc(N2CCC(O)C2)c2ncn(C3CCOC3)c2n1 (stereo not drawn)", "assay_system": "human CB2 receptors (Homo sapiens (Human), UniProt P34972)", "EC50 / µM": 0.139}
{"compound": "CC(C)(C)c1nc(N2CCC(F)(F)C2)c2ncn(CC3CCCCC3)c2n1", "assay_system": "human CB2 receptors (Homo sapiens (Human), UniProt P34972)", "EC50 / µM": 0.0753}
{"compound": "CC1(O)CCN(c2nc(C(C)(C)C)nc3c2ncn3Cc2cccnc2Cl)C1 (stereo not drawn)", "assay_system": "human CB2 receptors (Homo sapiens (Human), UniProt P34972)", "EC50 / µM": 0.0248}
{"compound": "CC(C)(C)c1nc(N2CCC(F)(F)C2)c2ncn(CC(=O)c3ccccc3Cl)c2n1", "assay_system": "human CB2 receptors (Homo sapiens (Human), UniProt P34972)", "EC50 / µM": 0.0035}
{"compound": "CC(C)(C)c1nc(N2CCC[C@@H]2C#N)c2ncn(Cc3nnnn3C3CC3)c2n1", "assay_system": "human CB2 receptors (Homo sapiens (Human), UniProt P34972)", "EC50 / µM": 0.176}
{"compound": "CC(=O)N[C@H]1CCN(c2nc(C(C)(C)C)nc3c2ncn3Cc2cccnc2Cl)C1", "assay_system": "human CB2 receptors (Homo sapiens (Human), UniProt P34972)", "EC50 / µM": 0.175}
{"compound": "CC(C)(C)c1nc(N2CCC(O)C2)c2ncn(CC3CCCCC3)c2n1 (stereo not drawn)", "assay_system": "human CB2 receptors (Homo sapiens (Human), UniProt P34972)", "EC50 / µM": 0.0712}
{"compound": "COCCn1cnc2c(N3CC(F)(F)C(F)(F)C3)nc(C(C)(C)C)nc21", "assay_system": "human CB2 receptors (Homo sapiens (Human), UniProt P34972)", "EC50 / µM": 0.0646}
{"compound": "CC1(O)CCN(c2nc(C(C)(C)C)nc3c2ncn3Cc2n[nH]cc2C(F)(F)F)C1 (stereo not drawn)", "assay_system": "human CB2 receptors (Homo sapiens (Human), UniProt P34972)", "EC50 / µM": 0.0221}
{"compound": "CC1(O)CCN(c2nc(C(C)(C)C)nc3c2ncn3Cc2c[nH]nc2C(F)(F)F)C1 (stereo not drawn)", "assay_system": "human CB2 receptors (Homo sapiens (Human), UniProt P34972)", "EC50 / µM": 0.0793}
